- measuredOn: Avi-KRAS G12V (1-169) GppNHp/RAF1 RBD-3xFLAG (52-151) (Homo sapiens, UniProt P01116, G12V)
- Construct: Avi-KRAS G12V (1-169)
- Sequence (P01116 1-169 isoform P01116-2 G12V): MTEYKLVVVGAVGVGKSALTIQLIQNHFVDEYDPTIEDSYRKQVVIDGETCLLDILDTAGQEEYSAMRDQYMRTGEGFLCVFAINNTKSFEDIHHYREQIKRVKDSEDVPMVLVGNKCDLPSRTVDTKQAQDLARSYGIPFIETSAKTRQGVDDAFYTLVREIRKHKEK
- experimentSummary: Raf1-KRAS G12V-GppNHP disruption HTRF assay (Biological Example 1)
- Format: binding
- particulars: KRAS G12V-GppNHp/RAF1 RBD HTRF
recordedMetric: IC50

// query For the compound shown here, C[C@@]1(CO)CCN1c1nc(OC[C@@]23CCCN2C[C@H](F)C3)nc2c(F)c(-c3ccc(F)c4sc(N)c(C#N)c34)c(C(F)(F)F)cc12 , give the reported IC50.
// result > 10000 nM

// query Could you tell me which IC50 is on file for [2H]C1([2H])CN2C[C@H](F)C[C@]2(COc2nc(N(C)[C@@H]3CCN(C(=O)C4CC4)[C@@H]3C)c3cc(C(F)(F)F)c(-c4ccc(F)c5sc(N)c(C#N)c45)c(F)c3n2)C1 ?
// result 100 to 1000 nM

// query I am curious: what IC50 value has been reported for CCN(c1nc(OC[C@@]23CCCN2C[C@H](F)C3)nc2c(F)c(-c3ccc(F)c4sc(N)c(C#N)c34)c(C(F)(F)F)cc12)[C@H]1CCN(C(=O)CCC#N)C1 (atropisomer, axis not shown) ?
// result < 100 nM

// query I'd like to know its IC50. The compound in question is CN(C)C(=O)c1nc2c(s1)CCN(c1nc(OCC34CCCN3CC(F)C4)nc3c(F)c(-c4ccc(F)c5sc(N)c(C#N)c45)c(C(F)(F)F)cc13)C2 (centres unmarked)
// result > 10000 nM

// query Data request, read-out IC50, for CN(C)C(=O)[C@H]1CN(c2nc(OC[C@@]34CCCN3C[C@H](F)C4)nc3c(F)c(-c4ccc(F)c5sc(N)c(C#N)c45)c(C(F)(F)F)cc23)CCO1
// result 100 to 1000 nM

---

- measuredOn: Avi-KRAS G12V (2-169) GTP/RAF1 RBD-3xFLAG (51-131) (Homo sapiens, UniProt P01116, G12V)
- Construct: Avi-KRAS G12V (2-169)
- Sequence (P01116 2-169 isoform P01116-2 G12V): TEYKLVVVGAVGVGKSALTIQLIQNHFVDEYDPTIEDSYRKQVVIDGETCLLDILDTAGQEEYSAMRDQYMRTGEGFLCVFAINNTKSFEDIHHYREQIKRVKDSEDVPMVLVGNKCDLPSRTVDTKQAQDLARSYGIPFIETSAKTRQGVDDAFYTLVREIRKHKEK
- experimentSummary: Raf1-KRAS G12V-GTP disruption HTRF assay (Biological Example 3)
- Type: binding
- particulars: KRAS G12V, GTP-loaded
pIC50: −log10 of the molar value.
Kindly state pIC50 for each of the entries shown.

// query Would you kindly share the measured pIC50 for N#Cc1c(N)sc2c(F)ccc(-c3c(C(F)(F)F)cc4c(N(C5CC5)[C@H]5CCS(=O)(=O)C5)nc(OC[C@@]56CCCN5C[C@H](F)C6)nc4c3F)c12 ?
// result < 5.00

// query Quick check: pIC50 of CCN(c1nc(OC[C@@]23CCCN2C[C@H](F)C3)nc2c(F)c(-c3ccc(F)c4sc(N)c(C#N)c34)c(C(F)(F)F)cc12)[C@H]1C[C@@H]2COCC(=O)N2C1 (atropisomer, axis not shown) ?
// result 6.00 to 7.00

// query Please look up its pIC50: C[C@@H]1[C@H](N(C)c2nc(OC[C@@]34CCCN3C[C@H](F)C4)nc3c(F)c(-c4ccc(F)c5sc(N)c(C#N)c45)c(C(F)(F)F)cc23)CCN1C(=O)C1CC1 (atropisomer, axis not shown)
// result 6.00 to 7.00

// query Find the recorded pIC50 belonging to CCN(c1nc(OC[C@@]23CCCN2C[C@H](F)C3)nc2c(F)c(-c3ccc(F)c4sc(N)c(C#N)c34)c(C(F)(F)F)cc12)[C@H]1CCN(C(=O)OC2CCOCC2)[C@@H]1C (atropisomer, axis not shown) and report it.
// result 6.00 to 7.00

// query Given the entry CCN(c1nc(OC[C@@]23CCCN2C[C@H](F)C3)nc2c(F)c(-c3ccc(F)c4sc(N)c(C#N)c34)c(C(F)(F)F)cc12)[C@H]1CCN(C(=O)C(C)C)C1 [Compound 332] , report its measured pIC50.
// result 6.00 to 7.00

// query Endpoint output: pIC50 of CCN(c1nc(OC[C@@]23CCCN2C[C@H](F)C3)nc2c(F)c(-c3ccc(F)c4sc(N)c(C#N)c34)c(C(F)(F)F)cc12)[C@H]1CCN(C(=O)C2CN(C(C)=O)C2)C1 (atropisomer, axis not shown) . Value?
// result ≥ 7.00

// query Which pIC50 value is on record for CCN(c1nc(OC[C@@]23CCCN2C[C@H](F)C3)nc2c(F)c(-c3ccc(F)c4sc(N)c(C#N)c34)c(C(F)(F)F)cc12)[C@H]1CCN(C(=O)c2cnc(C)s2)C1 (atropisomer, axis not shown) ?
// result ≥ 7.00

// query Using the record for CCN(c1nc(OC[C@@]23CCCN2C[C@H](F)C3)nc2c(F)c(-c3ccc(F)c4sc(N)c(C#N)c34)c(C(F)(F)F)cc12)[C@H]1CCN(C(=O)c2coc(C)n2)[C@@H]1C (atropisomer, axis not shown) , report its pIC50.
// result 6.00 to 7.00

// query // lookup pIC50 for CCN(c1nc(OC[C@@]23CCCN2C[C@H](F)C3)nc2c(F)c(-c3ccc(F)c4sc(N)c(C#N)c34)c(C(F)(F)F)cc12)[C@H]1CCN(C(=O)[C@@H]2C[C@@H]2C)C1 (atropisomer, axis not shown)
// result 6.00 to 7.00

// query Returns the measured pIC50 for the input compound. Input: CCN(c1nc(OC[C@@]23CCCN2C[C@H](F)C3)nc2c(F)c(-c3ccc(F)c4sc(N)c(C#N)c34)c(C(F)(F)F)cc12)[C@H]1C[C@H](C)N(C(=O)OC)C1 (atropisomer, axis not shown)
// result 6.00 to 7.00

// query Which value of pIC50 has been reported for CCN1C[C@@H](N(C)c2nc(OC[C@@]34CCCN3C[C@H](F)C4)nc3c(F)c(-c4ccc(F)c5sc(N)c(C#N)c45)c(C(F)(F)F)cc23)CC1=O (atropisomer, axis not shown) in the records?
// result 6.00 to 7.00

// query Any idea what its pIC50 is? The compound is C=C(C)C(=O)N1CC[C@H](N(CC)c2nc(OC[C@@]34CCCN3C[C@H](F)C4)nc3c(F)c(-c4ccc(F)c5sc(N)c(C#N)c45)c(C(F)(F)F)cc23)C1 (atropisomer, axis not shown)
// result 6.00 to 7.00

// query Returns the measured pIC50 for the input compound. Input: CCN(Cc1cccnc1)c1nc(OC[C@@]23CCCN2C[C@H](F)C3)nc2c(F)c(-c3ccc(F)c4sc(N)c(C#N)c34)c(C(F)(F)F)cc12 (atropisomer, axis not shown)
// result 5.00 to 6.00

// query Sample CCN(c1nc(OC[C@@]23CCCN2C[C@H](F)C3)nc2c(F)c(-c3ccc(F)c4sc(N)c(C#N)c34)c(C(F)(F)F)cc12)[C@H]1CCN(C(=O)c2ncc(Cl)s2)C1 (atropisomer, axis not shown) — what was its pIC50?
// result 5.00 to 6.00

// query Entry CCN(c1nc(OC[C@@]23CCCN2C[C@H](F)C3)nc2c(F)c(-c3ccc(F)c4sc(N)c(C#N)c34)c(C(F)(F)F)cc12)[C@@H]1CC(=O)N(C2CC2)C1 [Compound 537] has what pIC50?
// result ≥ 7.00

// query What value of pIC50 has been reported for the following compound? CCN(c1nc(OC[C@@]23CCCN2C[C@H](F)C3)nc2c(F)c(-c3ccc(F)c4sc(N)c(C#N)c34)c(C(F)(F)F)cc12)[C@H]1C[C@H](C)N(C(=O)C2CC(OC)C2)C1 (some centres unmarked)
// result 6.00 to 7.00

// query Can you look up the measured pIC50 of C[C@H](c1cccnc1)N(C)c1nc(OC[C@@]23CCCN2C[C@H](F)C3)nc2c(F)c(-c3ccc(F)c4sc(N)c(C#N)c34)c(C(F)(F)F)cc12 (atropisomer, axis not shown; (aS)) for me?
// result 5.00 to 6.00

---

Provide the recorded IC50 for the entries that follow.
- measuredOn: Avi-KRAS G12R (1-169) GppNHp/RAF1 RBD-3xFLAG (52-151) (Homo sapiens, UniProt P01116, G12R)
- Construct: Avi-KRAS G12R (1-169)
- Sequence (P01116 1-169 isoform P01116-2 G12R): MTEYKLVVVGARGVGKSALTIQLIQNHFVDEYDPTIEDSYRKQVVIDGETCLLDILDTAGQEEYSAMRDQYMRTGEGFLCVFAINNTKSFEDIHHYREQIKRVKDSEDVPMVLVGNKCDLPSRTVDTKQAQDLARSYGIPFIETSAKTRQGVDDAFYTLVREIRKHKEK
- experimentSummary: Raf1-KRAS G12R-GppNHP disruption HTRF assay (Biological Example 1)
- Assay type: binding
- particulars: KRAS G12R, GppNHp-loaded; class symbols

// query GET /values?readout=IC50&item= C[C@@H]1[C@H](N(C)c2nc(OC[C@]34C[C@@H](F)CN3CC3(CC3)C4)nc3c(F)c(-c4ccc(F)c5sc(N)c(C#N)c45)c(Cl)cc23)CCN1C(=O)C1CC1
// result 1 to 10 µM

// query IC50 lookup needed for CCN(c1nc(OC[C@@H]2C[C@@H](OC)CN2C)nc2c(F)c(-c3ccc(F)c4sc(N)c(C#N)c34)c(C(F)(F)F)cc12)[C@H]1CCN(C(=O)C(C)C)C1 , thanks.
// result 0.1 to 1 µM

// query Find the recorded IC50 belonging to CCN(c1nc(OC[C@@]23CCCN2C[C@H](F)C3)nc2c(F)c(-c3ccc(F)c4sc(N)c(C#N)c34)c(C(F)(F)F)cc12)[C@H]1C[C@H](COC)N(C(=O)N(C)C)C1 (atropisomer, axis not shown) and report it.
// result 0.1 to 1 µM

// query So what does the record say about IC50 for CCN(c1nc(OC[C@@]23CCCN2C[C@H](F)C3)nc2c(F)c(-c3ccc(F)c4sc(N)c(C#N)c34)c(C(F)(F)F)cc12)[C@H]1CCN(C(=O)N(C)C)[C@H]1C (atropisomer, axis not shown) ?
// result 1 to 10 µM

// query Item CN(C)C(=O)c1nn2c(c1C(F)(F)F)CN(c1nc(OC[C@@]34CCCN3C[C@H](F)C4)nc3c(F)c(-c4ccc(F)c5sc(N)c(C#N)c45)c(C(F)(F)F)cc13)CC2 (atropisomer, axis not shown) has what recorded IC50?
// result 0.1 to 1 µM

// query Value lookup for IC50; key = CCOC1CN(C(=O)N2CC[C@H](N(CC)c3nc(OC[C@@]45CCCN4C[C@H](F)C5)nc4c(F)c(-c5ccc(F)c6sc(N)c(C#N)c56)c(C(F)(F)F)cc34)C2)C1 (atropisomer, axis not shown)
// result < 0.1 µM

// query Please give the measured IC50 for this molecule: CCN(c1nc(OC[C@@]23CCCN2C[C@H](F)C3)nc2c(F)c(-c3ccc(F)c4sc(N)c(C#N)c34)c(C(F)(F)F)cc12)[C@H]1C[C@@H]2CCC(=O)N2C1 (atropisomer, axis not shown)
// result < 0.1 µM

// query Request the reported IC50 associated with CCN(c1nc(OC[C@@]23CCCN2C[C@H](F)C3)nc2c(F)c(-c3ccc(F)c4sc(N)c(C#N)c34)c(C(F)(F)F)cc12)[C@H]1CC(=O)N2CCC[C@@H]12 (atropisomer, axis not shown; (aS))
// result < 0.1 µM
